Molecular target: T1, sRAGE (V-C1-C2) lot LP08062 (human, UniProt Q15109 23-331, limits assumed)
T1 construct: domain: V-C1-C2; also called Human RAGE; LP08062 (Rage)
T1 sequence (Q15109 23-331 limits assumed): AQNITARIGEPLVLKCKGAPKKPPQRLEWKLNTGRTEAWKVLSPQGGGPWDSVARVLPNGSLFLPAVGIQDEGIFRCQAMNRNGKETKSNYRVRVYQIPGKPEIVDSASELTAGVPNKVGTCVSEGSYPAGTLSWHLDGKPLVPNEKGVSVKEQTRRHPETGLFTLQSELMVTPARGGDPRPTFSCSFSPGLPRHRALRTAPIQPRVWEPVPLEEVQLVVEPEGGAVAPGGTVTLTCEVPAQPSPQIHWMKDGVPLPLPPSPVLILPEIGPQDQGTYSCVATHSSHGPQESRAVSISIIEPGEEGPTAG
Experiment: SPR (Biacore), mAb captured on anti-mouse Fc, sRAGE 15 nM, Langmuir 1:1

| binder | Kd |
| --- | --- |
| 347 RAGE-1 (antibody, V domains shown, Anti-RAGE monoclonal antibody from a hybridoma, captured by anti-mouse Fc) VH: QVQLQQSGAELAKPGASVKMSCRASGYTFTDYWMHWVKQRPGQGLEWIGFINPSTVYTEYIPKFKDKATLTADKSSSTAYMQLSSLTSEDSAVYYCARSDGGWYFDVWGAGTTVTVSS VL: DIQMTQSSSYLSVSLGGRVTITCKASDRINYWLAWYQQKPGNAPRLLISGATTLETGVPSRFSGSGSGKDYTLSITSLQTEDVATYYCQQYWSTPYTFGGGTKLELK | 0.666 nM |

Reference for the values: patent US20120282637A1
